System: KM12 colon
test_summary: NCI tumour cell line growth inhibition, 48 h
Quick reference: TGI of the listed items.
observation_type: TGI

[[record]]
compound = "Cc1cc(C(=O)NOCCO)c(Nc2ccc(I)cc2F)n(C)c1=O"
reading = "> 100 µM"

[[record]]
compound = "O=S1c2ccccc2N=C(c2cccs2)CC1c1ccccc1O (stereo unspecified)"
reading = "> 100 µM"

[[record]]
compound = "C#Cc1cccc(NC(=O)C2CCCCN2C(=O)CCl)c1 (stereo unspecified)"
reading = "> 82.5 µM"

[[record]]
compound = "c1ccc(C2SCc3nc4ccccc4n32)cc1 (stereo unspecified)"
reading = "> 100 µM"

[[record]]
compound = "CC1NCCC(CC(=O)O)C1CC(=O)O (stereo unspecified)"
reading = "> 100 µM"

[[record]]
compound = "CC(=O)Nc1ccc(S(=O)(=O)Nc2cnc3ccccc3n2)cc1"
reading = "> 100 µM"

